STUDY TARGET: KRas(G12V) (Homo sapiens (Human), UniProt P01116, G12V)
Sequence (P01116-2 other isoform, or with tags, fused parts or gaps G12V): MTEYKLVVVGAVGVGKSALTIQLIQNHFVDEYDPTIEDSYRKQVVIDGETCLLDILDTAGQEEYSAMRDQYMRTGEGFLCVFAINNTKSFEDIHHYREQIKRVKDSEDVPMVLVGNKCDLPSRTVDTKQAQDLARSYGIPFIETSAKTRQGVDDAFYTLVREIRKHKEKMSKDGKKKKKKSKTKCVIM
ASSAY TEXT: KRas(G12V) GDP HTRF (BODIPY-GDP exchange TR-FRET)
Type: biochemical
REPORTED METRIC: pIC50
// pIC50 is dimensionless: -log10 of concentration (M)

INSERT INTO assay_data (compound, result) VALUES
  ('Cc1cc(N)nc(-c2c(Cl)c3c4c(nc(OC[C@]56CCN5CC(F)(F)C6)nc4c2F)N([C@H](C)c2cncnc2N)CCO3)c1C(F)(F)F (atropisomer, axis not shown) [Example 82b]', 9.92),
  ('Cc1cc(N)nc(-c2c(Cl)c3c4c(nc(OC[C@@H]5CC[C@H]6COCCCN65)nc4c2F)N([C@H](C)c2cccnc2N)CCO3)c1C(F)(F)F (atropisomer, axis not shown; (aS)) [Example 120a]', 10.15);

Return pIC50 measured with KRas(G12V) (Homo sapiens (Human), UniProt P01116, G12V) given this compound: Cc1cc(N)nc(-c2c(Cl)c3c4c(nc(OC[C@@]5(C)CC(F)(F)CN5C)nc4c2F)N([C@H](C)c2cccnc2N)CCO3)c1C(F)(F)F (atropisomer, axis not shown) [Example 122b] 10.02
